Data origin, for the record: PubChem BioAssay (NCI)

# Test system: COLO 205 colon
# PROTOCOL_DESCRIPTION: NCI tumour cell line growth inhibition, 48 h
ASSAY_METRIC: TGI (µM)
Answer with a number only, understood to be in µM.

Look over these answered cases.
COMPOUND	UNIT_ANNOTATION	TGI
CO[C@H]1C=CO[C@@]2(C)Oc3c(C)c(O)c4c(O)c(c(CN5CCN(C)CC5)c(O)c4c3C2=O)NC(=O)/C(C)=C\C=C[C@H](C)[C@H](O)C(C)[C@@H](O)C(C)[C@H](OC(C)=O)[C@@H]1C (stereo partly drawn)	µM	25.2
COC1C(O)CC(OC2CC(OC3CC(O[C@@H]4C(=O)c5c(cc6cc(OC7CC(OC8CC(O)C(O)C(C)O8)C(O)C(C)O7)c(C)c(O)c6c5O)CC4[C@H](OC)C(=O)O)OC(C)C3O)OC(C)C2O)OC1C (stereo partly drawn)	µM	6.9
CCOC(=O)/C=C(\C(=O)OCC)n1ccc(=O)n(Cc2cnnn2CCCCOC(C)=O)c1=O	µM	5.8
Cc1cccc(-n2c(N)c(-c3nc4ccccc4[nH]3)sc2=S)c1	µM	51.8

Please fill in: TGI reported for CC1=C2CC(C)(C)/C=C\C(=O)/C(C)=C\C3=C[C@H](C)C[C@]3(O2)C1=O = 9.27

The compound COc1ccccc1Cc1ccc(C2C=CC3(CC(=O)C=C3C)C(=O)C2)o1 (stereo not drawn) showed TGI equal to 50.5

Please fill in: TGI reported for Oc1ccc([C@H]2c3c(O)cc(O)cc3C3c4c(cc(O)cc4[C@@H]2[C@H]2c4cc(O)cc5c4C(c4cc(O)cc(O)c4[C@@H]2c2ccc(O)cc2)[C@@H](c2ccc(O)cc2)O5)O[C@@H]3c2ccc(O)cc2)cc1 (stereo partly drawn) = 8.15

Form: compound = COc1ccc(/C=C/C(=O)/C=C/c2ccc(OC)cc2OC)c(OC)c1 ; TGI = 51.9

----------
# Tested on: SF-268 CNS
# PROTOCOL_DESCRIPTION: NCI tumour cell line growth inhibition, 48 h
TGI overview

> print(dat)
                                   molecule  target.or.system  test.value
1  COc1ccc(/C=C2/CSCC3=C2NC(=S)NC3c2ccc(OC)c(OC)c2OC)c(OC)c1OC (stereo not drawn)        SF-268 CNS    > 100 µM

Kindly note the recorded TGI for O=C(CC1(O)C(=O)N(Cc2ccccc2)c2ccc(Cl)cc21)c1ccc(C(=O)NCC2CCC3(CC2)OOC2(CCCCC2)OO3)cc1 (stereo not drawn) , which is 3.67 µM

Briefly, TGI measured for O=C(CCl)NCCNc1nccc(Nc2ccc(S(=O)(=O)Nc3ccccn3)cc2)n1 : 12.9 µM

----------
# Test system: MDA-MB-231 breast
# PROTOCOL_DESCRIPTION: NCI tumour cell line growth inhibition, 48 h; in the data active = GI50 below about 0.43 µM; inactive = the rest
// allowed return values: active, inactive

Record excerpt, results attached:
COMPOUND	TARGET_OR_SYSTEM	CATEGORY
O=C1/C(=C/c2ccccc2)CN(C(=O)C(Cl)Cl)C/C1=C\c1ccccc1	MDA-MB-231 breast	inactive
CCCCCCCCCCCCCCCCCc1nccn1CCOCCO	MDA-MB-231 breast	inactive
O=C(CCl)NCCNc1nccc(Nc2ccc(S(=O)(=O)Nc3ccccn3)cc2)n1	MDA-MB-231 breast	inactive

Next, consider the following compound.
Lookup: Hi, sorry to bother you, what did the test record for COc1ccc2c3c(Nc4cccc(/C(C)=N\O)c4)[nH]c4ccccc4c-3c(N=O)c2c1 ?
Found: inactive

----------
# Tested on: 786-0 renal
# PROTOCOL_DESCRIPTION: NCI tumour cell line growth inhibition, 48 h
Rule: TGI under 10 µM gives rule not met, otherwise rule met.

> print(dat)
                                    molecule  target.or.system      category
 1  Clc1cc2nn(C3CCCCO3)nc2cc1Cl (configuration not stated)       786-0 renal      rule met
 2                NNC(=O)CC(=O)Nc1cccc(Cl)c1       786-0 renal      rule met
 3       Cc1cc(S(=O)(=O)N2CCNNC2=O)c(S)cc1Cl       786-0 renal      rule met
 4  CC1(C)[C@@H]2CC[C@]1(C)[C@H](OC(=O)/C=C/c1ccccc1)C2       786-0 renal      rule met
 5  N/N=C1\C(=O)N(Cc2ccccc2)C(=O)C1C(=O)NCc1ccccc1 (configuration not stated)       786-0 renal      rule met
 6      O=c1oc2ccc(I)cc2c(=O)n1-c1ccc(F)cc1F       786-0 renal  rule not met
 7            O=c1[nH]c2ccccc2c2nc3ccccc3n12       786-0 renal      rule met
 8  CC1CN=C(NS(=O)(=O)c2cc(C(=O)Nc3ccc(Cl)cc3)c(Cl)cc2S)NN1 (configuration not stated)       786-0 renal      rule met
 9                    CC(C)N(O)C(=N)c1ccccc1       786-0 renal      rule met
10                Cc1cc(Cl)nc2nc(Cl)c(N)cc12       786-0 renal      rule met

Lookup: # bool: TGI of Cc1nc(SCC(=O)Nc2ccc(Cl)cc2)c2sc(=S)n(-c3ccccc3)c2n1 >= 10 µM
Found: rule met

Lookup: Tell me whether TGI is at least 10 µM here: Oc1ccc(O)c(-c2cn3c(n2)SCC3)c1
Found: rule not met

----------
Listing of recorded TGI by entry.
# Tested on: SNB-75 CNS
# PROTOCOL_DESCRIPTION: NCI tumour cell line growth inhibition, 48 h
Kindly provide the numeric value in µM only, without the unit symbol.

Here's what some known entries look like.
SMILES_STRING	UNIT_ANNOTATION	TEST_VALUE
COc1ccc(/C=C/C(=O)/C=C/c2ccc(OC)cc2OC)c(OC)c1	µM	45.1
O=C(/C=C/c1ccc(Cl)cc1)c1ccccc(=O)c1O	µM	12.3

Next, consider the following molecule.
Entry O=C/C1=C/C2=Cc3ccccc3C=C(/C=C(/C=O)C1)C2 — recorded TGI = 80

----------
# System: OVCAR-8 ovarian
# PROTOCOL_DESCRIPTION: NCI tumour cell line growth inhibition, 48 h
Overview of recorded GI50 for various compounds

COMPOUND	GI50
COc1ccc2c3c(Nc4cccc(/C(C)=N\O)c4)[nH]c4ccccc4c-3c(N=O)c2c1	25.8 µM
CCCCCCCCCCCCCCCC1=NCCN1	2.67 µM
O=C(CCl)NCCNc1nccc(Nc2ccc(S(=O)(=O)Nc3ccccn3)cc2)n1	3.84 µM
COc1cccc(/C=C/C(=O)c2ccc(SC)cc2)c1OC	12.7 µM
Cc1ccc2oc(=O)cc(/C(=C3/C=CC=N3)c3ccc[nH]3)c2c1	0.304 µM

# GI50 (compound: CN(CCCCCl)P(=O)(OCCS(=O)(=O)CC(NC(=O)CCC(N)C(=O)O)C(=O)NC(C(=O)O)c1ccccc1)OCC1OC(n2ccc(N)nc2=O)C(O)C1O (centres undefined) ) is 5.4 µM

For reference, reported GI50 for COc1ccc(/C=C2\CN(C(=O)C(Cl)Cl)C/C(=C\c3ccc(OC)cc3)C2=O)cc1 stands at 0.881 µM

Recorded result, C[C@@]1(C(=O)O)CCC[C@]2(C)C1CC[C@@]13C[C@@](O)(CC[C@]12O)[C@@]1(CO1)C3 (some centres undefined) , GI50: > 100 µM

The value of GI50 measured for the compound CC1=CC(C)=NN=C(N)N1S(=O)(=O)c1cc(C)c(Cl)cc1SCc1ccccc1 turned out to be 56.6 µM

----------
# Tested on: M14 melanoma
# PROTOCOL_DESCRIPTION: NCI tumour cell line growth inhibition, 48 h; in the data active = GI50 below about 0.43 µM; inactive = the rest
The categories you may choose from are active, inactive

Some solved entries appear below for comparison.
> print(dat)
                              smiles.string  category
1          N.N.N.N.N.NC(=O)[O-].[Co+3].[I-]  inactive
2  O=C1C(Cl)=C(Nc2ccc(Nc3ccccc3)c(NC3=C(Cl)C(=O)c4ccccc4C3=O)c2)C(=O)c2ccccc21  inactive
3             Oc1ccc(O)c(-c2cn3c(n2)SCC3)c1  inactive

Lookup: Any idea what this test logged for O=S(=O)([O-])c1ccc(N=Cc2ccccc2[O-])cc1.O=S(=O)([O-])c1ccc(N=Cc2ccccc2[O-])cc1.[Co+2] ?
Found: inactive

Lookup: // outcome(item) with item = CC1CCN(Cc2ccc(NC(=O)c3cc4ccc5cccnc5c4[nH]3)cc2)CC1
Found: inactive

----------
# Lookup of reported GI50 keyed by entry
# Test system: UACC-257 melanoma
# PROTOCOL_DESCRIPTION: NCI tumour cell line growth inhibition, 48 h

> print(dat)
                              smiles.string  assay.metric  test.value
1  N#Cc1c(NCc2ccccc2)nc(NCc2ccccc2)c(C#N)c1-c1ccc(O)cc1          GI50     43.2 µM
2  CC(=O)O[C@H]([C@H](OC(C)=O)[C@H](C)OC(C)=O)[C@@H](/C=C/[C@@H]1CC=CC(=O)O1)OC(C)=O          GI50    > 100 µM
3           CCN1CCC(Nc2ccnc3cc(Cl)ccc23)CC1          GI50       17 µM

Fill in: UACC-257 melanoma GI50 for COc1ccc2c3c(Nc4cccc(/C(C)=N\O)c4)[nH]c4ccccc4c-3c(N=O)c2c1 = 41 µM

Form: item COc1cc2c(c(OC)c1OC)-c1ccc(O)cc1[C@@H](NC(C)=O)CC2 ; test system UACC-257 melanoma; GI50: > 68.3 µM
